# Procedure Details: amyloid nucleation score (Sup35N fusion, yeast selection) (log enrichment); library NNK2; higher = more nucleation; inactive = no reads after selection;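 also: zero at mode of non-aggregating sequences after 7 days selection at 30°C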
Decide by amyloid nucleation score: equal to or exceeding -0.03 means met, less means not met.

Quick check, amyloid nucleation score >= -0.03? WPKSAILIHCRVANGLCRFV
met

Does IIMNVVHEDSLL have a reported amyloid nucleation score of at least -0.03?
met

Test whether the sequence ASVLTDPGVRSGRLRVCVGQ records amyloid nucleation score of -0.03 or higher.
not met

Could you verify whether the entry NYYYIVLLYRSLLLMS shows amyloid nucleation score of no less than -0.03?
not met

Next:
Can AGMHLRVWHSDTHHWLLLNR be said to have amyloid nucleation score at or above -0.03?
met

Please indicate if the recorded amyloid nucleation score for TNYKRCCV meets or exceeds -0.03.
not met

###

# Procedure Details: amyloid nucleation score (Sup35N fusion, yeast selection) (log enrichment); library NNK2; higher = more nucleation; inactive = no reads after selection
The recorded amyloid nucleation score of each item maps onto one of these classes: L (below -0.6), M (-0.6 to below 0.3), H (0.3 or more)

# bin label for YGNSYRG
M

Exercise: read the entry FSKGEATDCSWQ and state which class it falls under.
H

Please classify: KWVGQLTVVMWLKCNPFCFE
M

Any idea which band SFFNSWTHFGNCWFL is in?
H

Please indicate the class for RSDVTLDNIQMWA based on its amyloid nucleation score.
L

Kindly identify the class of GSVRSMVGFNACRTSLYESC .
M

Sort into band: SCDVMIRYLSLGTLSYVRAV
M

Which bin, given its amyloid nucleation score, does NGTLRQYDRSDYINKIGDSN occupy?
L

// bin(item) where item = RYWKFA
H

Band for the recorded amyloid nucleation score of GPVVIVDNFQYDCLA ?
M

---
Note: place this substance into its band. Item: VYVSYVAIFLPEPLVCDNVE
H

State the class of the substance shown: FDQLPRVFNYRLAILWAVYR
L

Looking at TELHLTDFWLRIMRQLFRFS , which class would you pick?
H

Which category does the recorded amyloid nucleation score put HTWDLYYAIYSA in?
L

The entry to classify is IRLYKGVTWIFLSGSYLLRD ; which class holds it?
L

Could you place SGRRLRGSKVSGWR in its proper category? Many thanks.
L

# classify by amyloid nucleation score band: YPSLNDACQP
M

###

# Procedure Details: amyloid nucleation score (Sup35N fusion, yeast selection) (log enrichment); library NNK3; higher = more nucleation; inactive = no reads after selection
Readout Name: amyloid nucleation score
Hey, just send me the number, nothing else.

Recorded results for 3 substances are shown here.
Given SFFFHSKSSGKTLNWSSDKA , state its recorded amyloid nucleation score.
0.956

What measured amyloid nucleation score goes with TFCLFRS ?
-0.343

Fill in: amyloid nucleation score of CMLSMFSCCCFDSPRRYCH is ___
2.36

Query substance follows.
Fill blank: measured amyloid nucleation score of the substance IWETVRIFCFINHAINCGVP is ____.
2.35

###

# Procedure Details: amyloid nucleation score (Sup35N fusion, yeast selection) (log enrichment); library NNK2; higher = more nucleation; inactive = no reads after selection
# amyloid nucleation score >= 0.2 gives YES, anything below gives NO

Evaluate ENCLESWTCI : amyloid nucleation score at minimum 0.2?
NO

New cases:
Say whether VYMPYHLSYMLEPRQNSVLS shows amyloid nucleation score of 0.2 or more.
NO

Reported amyloid nucleation score at or above 0.2? SSRLALEVDKATKRVW
NO

# bool: amyloid nucleation score of VHDFTRNRKWWDNLWSDRSM >= 0.2
YES

Hi, just wondering whether YFSYVMSVAATAMLGLVVVR shows amyloid nucleation score of 0.2 or higher.
NO

Does amyloid nucleation score meet or surpass 0.2 for HVSTSLYTIGSSVSWGMFQG ?
YES

###

# Procedure Details: amyloid nucleation score (Sup35N fusion, yeast selection) (log enrichment); library NNK1; higher = more nucleation; inactive = no reads after selection
Would you please tag the item 1 when its amyloid nucleation score is -0.3 or above, and -1 when it is below?

I'd appreciate it if you could say whether HYLVLYVIMYMFVQMSLPC has amyloid nucleation score at least equal to -0.3.
1

Assess whether reported amyloid nucleation score for LPFEVRLDCDVVGGG sits at -0.3 or higher.
1

# check: amyloid nucleation score of CWTCTSRVEWSPV is greater than or equal to -0.3
-1

Check if amyloid nucleation score >= -0.3 (inclusive). Item: NLFLMLVDLVSLGTTI
1

Identify whether the reported amyloid nucleation score of the following substance is -0.3 or greater: EFSSKMSRMM
1

Could you please find out whether MWGPHCTRSTTTLVPRARKG has amyloid nucleation score that meets -0.3 or exceeds it?
1

For this substance, is measured amyloid nucleation score -0.3 or higher? FDIMNDIK
1

I'd appreciate it if you could say whether TEYVTLLGLSLGFVLASLGA has amyloid nucleation score at least equal to -0.3.
1

Assess whether reported amyloid nucleation score for FVINSTIRKVFFGFPDWCMC sits at -0.3 or higher.
1

Test whether the substance RFASISYVGTNSGLDVQSNW records amyloid nucleation score of -0.3 or higher.
1

More entries:
Threshold query (amyloid nucleation score >= -0.3) on NGFNKSRAQWFGSVSCSPEG
1

Given MVTDPWISTLSSFHLWGGFM , state whether its amyloid nucleation score is at least -0.3.
-1

###

# Procedure Details: amyloid nucleation score (Sup35N fusion, yeast selection) (log enrichment); library NNK3; higher = more nucleation; inactive = no reads after selection
Readout Name: amyloid nucleation score

Consider the reported amyloid nucleation score for these substances:
Suppose we examine the substance TYLIWLGHRAHPMSLLHSFA ; what amyloid nucleation score value has been reported?
inactive

Request the reported amyloid nucleation score associated with QAIGSKRT
inactive

What does the data say about its amyloid nucleation score? Entry: YQCTKMRLVSFRTVVLVLRG
0.04

Sample HVPYIHRIFIWTYK — what was its amyloid nucleation score?
inactive

Please examine the following record next.
Form field: reported amyloid nucleation score of DIHVKNCVVCMYSG
2.44

###

# Procedure Details: amyloid nucleation score (Sup35N fusion, yeast selection) (log enrichment); library NNK2; higher = more nucleation; inactive = no reads after selection
Readout Name: amyloid nucleation score
API doc: respond with a numeric literal and nothing else, no unit.

What value of amyloid nucleation score has been reported for the following substance? GKILVAFLWPISCVR
0.037

Give the measured amyloid nucleation score of ISLHDRWIADPFVTACGKRY .
0.386

// amyloid nucleation score lookup, key: LVSMLVFL
2.15

Continuing:
I would be grateful if you could share the reported amyloid nucleation score for TTDLYEMLWTFWSINRNSKS .
-0.071

Requested read-out: amyloid nucleation score. Entry: YCSWFVWSTANVSMAYIVEF
-0.892

Return reported amyloid nucleation score; argument: RIFMWAYLAYCDNISEVRRR
-0.554

Please look up its amyloid nucleation score: IDSMGFSMKSFDFRYNTSRW
5.02

###

# Procedure Details: amyloid nucleation score (Sup35N fusion, yeast selection) (log enrichment); library NNK1; higher = more nucleation; inactive = no reads after selection
Tick met if amyloid nucleation score is 0.5 or greater. Tick not met if amyloid nucleation score is less than 0.5.

Record CWTLSDVLFDNNLFTMNMGP ; criterion: amyloid nucleation score no lower than 0.5. Met?
not met

Reported amyloid nucleation score reaches at least 0.5 for NCVTELYDLRGILVRNLCSG ?
not met

Could you verify whether the entry SACSESSVIWTNFH shows amyloid nucleation score of no less than 0.5?
not met

Answer whether amyloid nucleation score of MSSRQVPGFLMIGSLFARCI is greater than or equal to 0.5.
not met

Would you say LSLNIYCMRS shows amyloid nucleation score at minimum 0.5?
met

Kindly determine if amyloid nucleation score recorded for FQYEWNLVIW is above or exactly 0.5.
not met

Has TSTARISQPDNRVGLNF a recorded amyloid nucleation score greater than or equal to 0.5?
not met

Is it the case that LSATGGMGIRF has amyloid nucleation score reaching or exceeding 0.5?
not met

Continuing:
Quick check: does KLSGCMISKILFSPCWRD have amyloid nucleation score greater than or equal to 0.5?
met

In plain terms: is recorded amyloid nucleation score at least 0.5 for SQLWCLTNKHRKQQRKAGHY ?
not met

###

# Procedure Details: amyloid nucleation score (Sup35N fusion, yeast selection) (log enrichment); library NNK1; higher = more nucleation; inactive = no reads after selection
Readout Name: amyloid nucleation score

Below: 5 sequences and their reported amyloid nucleation score.
Using the record for RVPCCGSYKGVFYEFTFSRG , report its amyloid nucleation score.
0.957

May I ask what amyloid nucleation score has been recorded for NVTCSVISNGNLSEFDVFVI ?
0.122

GET /values?readout=amyloid nucleation score&item= MLTWCPTSEKVVLLFRSQRG
-0.383

Look up amyloid nucleation score for this sequence: EEQVDLIWLMYGAYHVCVMW
0.416

Can you share its amyloid nucleation score? I mean this sequence: LSYDSYSYIGLGGSLEIFWA
0.182

***
What value of measured amyloid nucleation score is listed for CDGPCALQS ?
0.263

Request the reported amyloid nucleation score associated with CRIIPLYRKFLKHLTCHYIQ
-0.092

Entry TVHFSDWMIPNTRLEATCGM : reported amyloid nucleation score = ?
0.158

Param item = FCVWIGKEGD ; retrieve measured amyloid nucleation score.
0.442
